- Read-out: growth arrest and DNA damage 45 (GADD45B), GADD45B (gene 4616)
- assay.details: LTEA_HepaRG_GADD45B: Life Technologies and Expression Analysis (LTEA) Assay for growth arrest and DNA damage 45 (GADD45B) using HepaRG (AID 2283461)
- applied.conditions: mRNA level, 48 h; actives raise or lower the signal
Active and inactive are the calls of the source. The calls were made as follows: active = hit-call score of the fitted dose curve at least 0.9, where 1 is the maximum; inactive = score below 0.9.
Give one outcome, nothing more. List: active, inactive

# molecule, label.class
data = [
    ("CCc1ccc(CCOc2ccc(CC3SC(=O)NC3=O)cc2)nc1 (configuration not stated)", "active"),
    ("CC[C@H](C)[C@@H](C(=O)O)n1sc2ccccc2c1=O", "inactive"),
    ("CCCCCCCCCCCCc1ccccc1S(=O)(=O)O", "inactive"),
    ("Oc1cccc(O)c1", "inactive"),
    ("CCCCCCCC(=O)O", "inactive"),
]

query: Kindly provide the recorded test outcome for the following molecule: CC(C)CCCCCCOC(=O)CCCCC(=O)OCCCCCCC(C)C
result: inactive

query: How was CCCCCCCCCCCCCCCS(=O)(=O)Oc1ccccc1 classified in this test?
result: inactive
